FYI, the data here is from ChEMBL document CHEMBL4513216.

# Test system: Plasmodium berghei
# Assay Overview: Screen against P. berghei liver stage (PbLuc), transformed with Luciferase, at 10uM
# Assay type: functional, HepG2
# Test Settings: tested at 10 uM
About 8,600 (12%) of roughly 69,000 compounds showed an effect of 50% or more. The sample holds strong results, similar compounds and a random draw of the others, so the mix is not that of the screen.
// reported INHIBITION for each item listed
Reported Property: INHIBITION

- Cn1cncc1C(=O)N1CCCC(c2ccn[nH]2)C1 (stereo not given): -35.9%
- Cc1oncc1C(=O)N1CCC2(CC1)CN(S(C)(=O)=O)c1ccccc12: -13.4%
- CCOCCCNc1nc(O)cc(C2CC(=O)N(C)C2)n1 (stereo not given): 56.9%
- Cc1ccc(CNc2nc(O)cc(C3CC(=O)N(C)C3)n2)cc1 (stereo not given): -16.5%
- COc1cccc(CNc2nc(O)cc(C3CC(=O)N(C)C3)n2)c1 (stereo not given): 17.1%

----------
# Test system: Plasmodium berghei
# Assay Overview: Screen against P. berghei liver stage (PbLuc), transformed with Luciferase, at 10uM
# Assay type: functional, HepG2
# Test Settings: tested at 10 uM
Out of some 69,000 compounds screened, about 8,600 (12%) showed an effect of 50% or more. The sample as a whole holds a higher share of strong results than the screen did.
Catalogue of INHIBITION readings, one per entry.
Reported Property: INHIBITION (%)

- CN(CC1(C)COC1)C(=O)c1cc(-c2ccnn2C)nc2ccccc12: 1.9
- O=S(=O)(CC1CCOCC1)NCc1ncc(-c2ccccc2)o1: 40.6
- CCN(CC)C(=O)NCCc1ccn(-c2ccccc2)n1: 7.67
- O=C(c1cnc2ccc(F)cc2c1NCc1ccco1)N1CCCC1: 37.2
- CC1(C(=O)N2CCN(c3cnccn3)CC2)CNCCO1 (stereo not given): 36.5
- Cc1noc(C)c1CC(=O)N1CC[C@@](C)(O)[C@H](Oc2ccccc2)C1: 41.55
- Cc1cc(C)c(CNC(=O)N2CCCC2c2ccc(F)cc2)c(=O)[nH]1 (stereo not given): 34.7
- O=C(Cc1ccccn1)N1CCN(CC2CC2)c2ncccc2C1: 24.5
- Cc1cc(-c2cnn(CCNC(=O)c3snnc3C)c2C2CC2)on1: 21.9
- CS(=O)(=O)c1cn[nH]c1C1CCCCN1C(=O)c1cnccn1 (stereo not given): -21.4
- CC(=O)NCC(=O)N1CCN(Cc2ccncc2)c2ncccc2C1: 76.5
- FC(F)(F)c1cccc(-c2c[nH]c(C3CCCN3)n2)c1 (stereo not given): -14.8
- CC(=O)N1CCc2ncc(CNC(=O)C3CCC3)n2CC1: 15.4
- O=C(NCCN1C(=O)c2ccccc2C1=O)c1scnc1Cl: 19.4
- COc1cccc2sc(N(C)CC(=O)NCc3nc(C)no3)nc12: -14.9

----------
# System: Plasmodium berghei
# Assay Overview: Screen against P. berghei liver stage (PbLuc), transformed with Luciferase, at 10uM
# Assay type: functional, HepG2
# Test Settings: tested at 10 uM
The campaign covered roughly 69,000 compounds. About 8,600 (12%) showed an effect of 50% or more. Shown is part of a subset that was picked to be rich in strong results.
Please note: t applies when INHIBITION is 30% or greater, and f applies otherwise.

• Cc1oncc1C(=O)N1CC[C@H]2[C@@H]1CCC(=O)N2CC1CCOCC1 = t
• O=C(O)C1CC2(CCN(c3nccc4ccccc34)CC2)CN1 (stereo unspecified) = t
• Cc1nnc(N2CC[C@@]3(O)CCNC[C@H]3C2)c2ccccc12 = f
• CC(C)N1CC(NC(=O)c2ccc(Cl)s2)CC1=O (stereo unspecified) = t
• CCc1nc2c(s1)C(N(C)C(=O)c1cc[nH]n1)CCC2 (stereo unspecified) = f
• CN(C)CCO[C@H]1C[C@@H](O)C12CCN(c1nccc3ccccc13)CC2 = f
• Cc1cc(C)cc(CCC(=O)N(C)CCc2cn[nH]c2)c1 = f
• Cc1oncc1C(=O)N1CC[C@H]2[C@@H]1CCC(=O)N2CC1CC1 = t
• CCc1nc2c(s1)C(N(C)C(C)=O)CCC2 (stereo unspecified) = f
• O=C(NC1CC(=O)N(C2CC2)C1)c1ccc(Cl)s1 (stereo unspecified) = t
• CCCS(=O)(=O)N1CCC(NC(=O)c2ccc(Cl)s2)CC1 = f
